Biological target: EGFR T790M/L858R (NCI-H1975 cells) (Homo sapiens, UniProt P00533, L858R/T790M)
Construct: NCI-H1975 (harboring EGFR heterozygous T790M/L858R mutations); host or cells: NCI-H1975
Sequence (P00533 25-1210 T790M/L858R): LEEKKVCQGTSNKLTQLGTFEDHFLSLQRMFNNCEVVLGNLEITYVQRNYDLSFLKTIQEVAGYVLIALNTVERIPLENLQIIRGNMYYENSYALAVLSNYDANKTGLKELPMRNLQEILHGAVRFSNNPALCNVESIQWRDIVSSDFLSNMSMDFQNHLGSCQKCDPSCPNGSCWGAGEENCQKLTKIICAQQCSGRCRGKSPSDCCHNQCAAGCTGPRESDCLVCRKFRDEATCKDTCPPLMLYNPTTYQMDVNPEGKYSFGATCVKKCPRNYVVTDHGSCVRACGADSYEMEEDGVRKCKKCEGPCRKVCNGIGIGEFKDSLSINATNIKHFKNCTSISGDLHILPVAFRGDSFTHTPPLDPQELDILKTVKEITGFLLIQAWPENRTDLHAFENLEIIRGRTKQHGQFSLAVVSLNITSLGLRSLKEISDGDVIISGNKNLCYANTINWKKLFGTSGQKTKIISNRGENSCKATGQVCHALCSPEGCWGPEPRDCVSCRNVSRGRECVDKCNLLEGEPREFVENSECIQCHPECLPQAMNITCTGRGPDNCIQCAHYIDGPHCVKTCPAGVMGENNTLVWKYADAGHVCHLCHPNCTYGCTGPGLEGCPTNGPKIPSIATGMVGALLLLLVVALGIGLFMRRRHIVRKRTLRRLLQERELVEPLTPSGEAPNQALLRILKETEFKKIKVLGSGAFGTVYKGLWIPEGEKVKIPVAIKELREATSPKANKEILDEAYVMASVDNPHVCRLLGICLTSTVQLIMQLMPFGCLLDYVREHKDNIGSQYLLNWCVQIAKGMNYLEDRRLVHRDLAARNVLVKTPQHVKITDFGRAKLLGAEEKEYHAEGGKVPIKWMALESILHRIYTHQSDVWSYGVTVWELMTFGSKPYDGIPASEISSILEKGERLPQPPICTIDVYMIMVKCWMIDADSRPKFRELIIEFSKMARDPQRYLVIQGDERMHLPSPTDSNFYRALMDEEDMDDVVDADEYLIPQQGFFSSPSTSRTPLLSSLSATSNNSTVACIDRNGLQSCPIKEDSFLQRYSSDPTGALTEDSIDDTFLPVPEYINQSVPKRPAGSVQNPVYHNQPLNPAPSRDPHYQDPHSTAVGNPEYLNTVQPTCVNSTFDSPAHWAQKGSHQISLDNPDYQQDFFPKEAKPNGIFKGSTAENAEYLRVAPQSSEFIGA
Experiment: EGFR (L858R) degradation analysis, Total EGFR (L858R) HTRF, NCI-H1975 cells
Format: cell-based
Conditions: 6 hours
measurementType: DC50 (nM)

Task: For the compound shown here, O=C1CCC(Nc2ccc(C3CCN(CC(=O)N4CCN(c5ccc(-c6cc(F)c7c(c6)C(=O)N(C(C(=O)Nc6nccs6)c6ncn8c6CCC8)C7)cc5)CC4)CC3)cc2)C(=O)N1 (centres unmarked) , give the reported DC50.
Output: 20

Task: For the compound shown here, O=C1CC[C@H](Nc2ccc(C3CCN(CC(=O)N4CC5(CCN(c6ccc(-c7cc(F)c8c(c7)C(=O)N(C(C(=O)Nc7nccs7)c7ncn9c7CCC9)C8)cc6)CC5)C4)CC3)c(F)c2)C(=O)N1 (some centres unmarked) , give the reported DC50.
Output: 51

Task: For the compound shown here, O=C1CC[C@H](Nc2ccc(C3CCN(CC(=O)N4CCC(Cc5ccc(-c6cc(F)c7c(c6)C(=O)N(C(C(=O)Nc6nccs6)c6ncn8c6CCC8)C7)cc5)CC4)CC3)c(F)c2)C(=O)N1 (some centres unmarked) , give the reported DC50.
Output: 52

Task: For the compound shown here, O=C1CCC(N2Cc3c(OC4CCN(C(=O)CCCN5CCN(c6ccc(-c7ccc8cn(C(C(=O)Nc9nccs9)c9ncn%10c9CCC%10)nc8c7F)cn6)CC5)CC4)cccc3C2=O)C(=O)N1 (racemic) , give the reported DC50.
Output: 19

Task: For the compound shown here, O=C1CCC(Nc2ccc(C3CCN(C(=O)C(=O)N4CCC(Oc5ccc(-c6cc(F)c7c(c6)C(=O)N(C(C(=O)Nc6nccs6)c6ncn8c6CCC8)C7)cc5)CC4)CC3)cc2)C(=O)N1 (centres unmarked) , give the reported DC50.
Output: 21

P. O=C1CCC(Nc2ccc(C3CCN(CC(=O)N4CCN(c5ccc(-c6cc(F)c7c(c6)C(=O)N(C(C(=O)Nc6nccs6)c6ncn8c6CCC8)C7)cc5)CC4)CC3)c(F)c2)C(=O)N1 (centres unmarked)
Q. O=C1CCC(Nc2ccc(C3CCN(CC(=O)N4CCN(c5ccc(-c6cc(Cl)c7cn(C(C(=O)Nc8nccs8)c8ncn9c8CCC9)nc7c6Cl)cc5)CC4)CC3)cc2)C(=O)N1 (racemic)
R. Cn1nc(N2CCC(=O)NC2=O)c2ccc(C3CCN(CC(=O)N4CC5(C4)CN(c4ccc(-c6cc(F)c7c(c6)C(=O)N(C(C(=O)Nc6nccs6)c6ncn8c6CCC8)C7)cc4)C5)CC3)cc21 (centres unmarked)
S. O=C1CC[C@H](Nc2ccc(C3CCN(CC(=O)N4CCC(NC(=O)c5ccc(C#Cc6cc(F)c7c(c6)C(=O)N(C(C(=O)Nc6nccs6)c6ncn8c6CCC8)C7)cn5)CC4)CC3)c(F)c2)C(=O)N1 (some centres unmarked)
Task: Ranking field: DC50; order: falling. Use the labels to give the requested order.
Output: Q, P, R, S

a. O=C1CCC(Nc2ccc(N3CCC(O)(CC(=O)N4CCN(c5ccc(-c6cc(F)c7c(c6)C(=O)N(C(C(=O)Nc6nccs6)c6ncn8c6CCC8)C7)cc5)CC4)CC3)c(C(F)(F)F)c2)C(=O)N1 (centres unmarked)
b. O=C1CC[C@H](Nc2ccc(C3CCN(CC(=O)N4CCC(Oc5ccc(-c6cc(F)c7c(c6)C(=O)N(C(C(=O)Nc6nccs6)c6ncn8c6CCC8)C7)cc5)CC4)CC3)c(F)c2)C(=O)N1 (some centres unmarked)
Task: Hi, I'm comparing a with b and wondering which one has the bigger number for DC50. Any idea? Lab log: write the label of the selected item as the result.
Output: b
(b: 88 nM, a: 46 nM)

1. O=C1CCC(Nc2ccc(C3CCN(CC(=O)N4CCC(Oc5ccc(-c6cc(F)c7c(c6)C(=O)N(C(C(=O)Nc6nccs6)c6ncn8c6CCC8)C7)cc5)CC4)CC3)c(F)c2)C(=O)N1 (centres unmarked)
2. O=C1CCC(Nc2ccc(C3CCN(C(=O)CN4CCN(c5ccc(-c6cc(F)c7c(c6)C(=O)N(C(C(=O)Nc6nccs6)c6ncn8c6CCC8)C7)cc5)CC4)CC3)cc2)C(=O)N1 (centres unmarked)
Task: Hi, I'm comparing 1 with 2 and wondering which one has the bigger number for DC50. Any idea? Lab log: write the label of the selected item as the result.
Output: 1
